Hello, the source for this data is patent US5140009A, in case you need it.

# targetOfAssay: LHRH receptors (Rattus norvegicus, UniProt P30969)
# Construct: Pituitary membranes containing LHRH receptors are prepared in batches from quick-frozen rat pituitaries; tissue Hilltop Labs; host or cells: rat pituitary membranes
# Sequence (P30969 1-327): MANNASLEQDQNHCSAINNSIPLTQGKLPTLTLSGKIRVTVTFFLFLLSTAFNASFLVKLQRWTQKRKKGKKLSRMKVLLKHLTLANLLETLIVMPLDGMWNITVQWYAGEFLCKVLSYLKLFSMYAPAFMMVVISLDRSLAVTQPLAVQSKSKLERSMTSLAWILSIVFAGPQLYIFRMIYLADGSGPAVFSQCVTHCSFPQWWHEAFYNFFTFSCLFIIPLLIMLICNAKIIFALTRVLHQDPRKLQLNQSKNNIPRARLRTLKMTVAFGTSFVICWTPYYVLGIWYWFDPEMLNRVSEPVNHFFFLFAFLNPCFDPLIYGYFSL
# experimentSummary: Receptor Binding (radioligand receptor binding assay)
# conditionParameters: table 3; rat pituitary membranes, radioiodinated [D-Leu^6 -des Gly^10 ]-LHRH ethyl amide 50 pM, 2 hours at 4° C.; read-out: Receptor Binding pkI (converted)
Square brackets hold non-standard residues; d marks the D form. Peptide text beside a SMILES is read from it. * marks the point of attachment. Propanoyl(3-(4-F-phenyl)) = O=C(CCc1ccc(F)cc1)*; Hydrocinnamoyl(2,4-F2) = O=C(CCc1ccc(F)cc1F)*; Acetyl(1-naphthyl) = O=C(Cc1cccc2ccccc12)*; Desaminohistidyl = O=C(CCc1c[nH]cn1)*; dCha = N[C@H](CC1CCCCC1)C(=O)O; X2 = O=C(C=Cc1ccccc1)*; Bn = c1ccc(C*)cc1
Quick reference: Ki of the listed items.
The response must be a number in nM with no trailing unit.

* CCNC(=O)[C@@H]1CCCN1C(=O)[C@H](CCCN=C(N)N)NC(=O)[C@H](CC(C)C)NC(=O)[C@@H](Cc1c[nH]c2ccccc12)NC(=O)[C@H](Cc1ccc(O)cc1)NC(=O)[C@H](CO)NC(=O)[C@@H](Cc1c[nH]c2ccccc12)NC(=O)CCc1ccc(F)cc1F [Compound 90] ({Hydrocinnamoyl(2,4-F2)}-[dW]SY[dW]LRP-NHEt) | 0.0316
* CCNC(=O)[C@@H]1CCCN1C(=O)[C@H](CCCNC(=N)N)NC(=O)[C@H](CC(C)C)NC(=O)[C@@H](CC1CCCCC1)NC(=O)[C@H](Cc1ccc(O)cc1)NC(=O)[C@H](COCc1ccccc1)NC(=O)Cc1cccc2ccccc12 [Compound 33] ({Acetyl(1-naphthyl)}-S(Bn)Y[dCha]LRP-NHEt) | 13.8
* CCNC(=O)[C@@H]1CCCN1C(=O)[C@H](CCCNC(=N)N)NC(=O)[C@H](CC(C)C)NC(=O)[C@@H](Cc1c[nH]c2ccccc12)NC(=O)[C@H](Cc1ccc(O)cc1)NC(=O)[C@H](CO)NC(=O)[C@H](Cc1c[nH]c2ccccc12)NC(=O)CCc1c[nH]cn1 [Compound 61] (Desaminohistidyl-WSY[dW]LRP-NHEt) | 0.427
* CCNC(=O)[C@@H]1CCCN1C(=O)[C@H](CCCNC(=N)N)NC(=O)[C@H](CC(C)C)NC(=O)[C@@H](Cc1c[nH]c2ccccc12)NC(=O)[C@H](Cc1ccc(O)cc1)NC(=O)[C@H](CO)NC(=O)[C@H](Cc1c[nH]c2ccccc12)NC(=O)C=Cc1ccccc1 [Compound 62] (X2-WSY[dW]LRP-NHEt) | 10.5
* CCNC(=O)[C@@H]1CCCN1C(=O)[C@H](CCCNC(=N)N)NC(=O)[C@H](CC(C)C)NC(=O)[C@@H](Cc1c[nH]c2ccccc12)NC(=O)[C@H](Cc1ccc(O)cc1)NC(=O)[C@H](CO)NC(=O)CCc1ccc(F)cc1 [Compound 77] ({Propanoyl(3-(4-F-phenyl))}-SY[dW]LRP-NHEt) | 3.98

[ask] Quick check: Ki of CCNC(=O)[C@@H]1CCCN1C(=O)[C@H](CCCNC(=N)N)NC(=O)[C@H](CC(C)C)NC(=O)[C@@H](Cc1c[nH]c2ccccc12)NC(=O)[C@H](Cc1ccc(O)cc1)NC(=O)[C@H](CO)NC(=O)[C@H](Cc1c[nH]c2ccccc12)NC(=O)C(CC(=O)N1CCOCC1)Cc1cccc2ccccc12 (single isomer, unassigned) [Compound 131] ?
[reply] 0.631
